The substances listed here are annotated with their percent inhibition of Factor 7 mRNA, 50.0 nM.
System: human Factor 7 mRNA
run-description: Dose-dependent antisense inhibition of human Factor 7 in HepB3 cells, transfection with lipofectin
Assay type: cell-based
run-parameters: Example 5; HepB3, lipofectin, 50.0 nM, ~16 h
Procedure: Cells were plated at a density of 4,000 cells per well and treated with lipofectin reagent with 3.125 nM, 6.25 nM, 12.5 nM, 25 nM, 50 nM, and 100 nM concentrations of antisense oligonucleotide, as indicated in Table 3. After a treatment period of approximately 16 hours, RNA was isolated from the cells and Factor 7 mRNA levels were measured by real-time RT-PCR, as described herein. […] Factor 7 mRNA levels were adjusted according to total RNA content as measured by RIBOGREEN®. […]
In the oligonucleotide strings, read from the 5' end, every base follows the letter of its sugar. An asterisk marks phosphorothioate; unmarked linkages are phosphodiester. Other units and linkages are bracketed, terminal groups are in braces. A string of capitals states the bases alone. e = 2'-O-(2-methoxyethyl) (MOE); [5mC] = 5-methylcytosine; d = 2'-deoxy (DNA)
measurement-name: percent inhibition of Factor 7 mRNA, 50.0 nM (%)

1) 416472 (antisense e[5mC]*eA*eG*e[5mC]*e[5mC]*dT*dT*dG*dG*d[5mC]*dT*dT*dT*d[5mC]*dT*e[5mC]*eT*e[5mC]*e[5mC]*eA) [compound 416472]: 80
2) 416446 (antisense eG*eG*eT*e[5mC]*eA*d[5mC]*dT*dG*d[5mC]*dA*dG*dT*dA*d[5mC]*dT*eG*e[5mC]*eT*e[5mC]*eA) [compound 416446]: 69
3) 407939 (antisense eT*eG*e[5mC]*eA*eG*d[5mC]*d[5mC]*d[5mC]*dG*dG*d[5mC]*dA*d[5mC]*d[5mC]*d[5mC]*eA*eG*e[5mC]*eG*eA) [compound 407939]: 84
4) 407900 (antisense e[5mC]*e[5mC]*e[5mC]*e[5mC]*eA*d[5mC]*dA*dA*dT*dT*d[5mC]*dG*dG*d[5mC]*d[5mC]*eT*eT*eG*eG*eG) [compound 407900]: 82
5) 416438 (antisense e[5mC]*eA*eG*eG*eA*dG*d[5mC]*d[5mC]*d[5mC]*d[5mC]*d[5mC]*dA*dT*dT*d[5mC]*eT*eG*eG*e[5mC]*eA) [compound 416438]: 75
6) 416507 (antisense eG*eG*eT*eT*eA*d[5mC]*dT*dG*dA*dG*d[5mC]*dG*d[5mC]*dG*dG*eA*eA*eG*eA*eA) [compound 416507]: 77
7) 416477 (antisense e[5mC]*eA*eG*e[5mC]*e[5mC]*dT*dG*dA*dG*dG*d[5mC]*d[5mC]*dA*dG*d[5mC]*eA*eG*eA*eT*e[5mC]) [compound 416477]: 78
8) 407935 (antisense eA*eT*eG*e[5mC]*eA*dT*dG*dG*dT*dG*dA*dT*dG*d[5mC]*dT*eT*e[5mC]*eT*eG*eA) [compound 407935]: 82
9) 416549 (antisense eG*eA*e[5mC]*eA*eA*dT*dG*dG*dT*d[5mC]*dA*dG*dG*dG*d[5mC]*eT*eG*eG*eT*eT) [compound 416549]: 73
10) 416508 (antisense e[5mC]*eG*eA*eG*eT*dT*d[5mC]*dT*dG*d[5mC]*dA*dG*dG*dA*dG*e[5mC]*eG*eG*e[5mC]*e[5mC]) [compound 416508]: 79
11) 416455 (antisense e[5mC]*eG*e[5mC]*e[5mC]*eG*dG*d[5mC]*dT*d[5mC]*dT*dG*d[5mC]*dT*d[5mC]*dA*eT*e[5mC]*e[5mC]*e[5mC]*e[5mC]) [compound 416455]: 78
12) 416449 (antisense eT*eA*eG*eG*eT*dA*dT*dT*dT*dT*dT*d[5mC]*d[5mC]*dA*d[5mC]*eA*eT*eG*eG*eA) [compound 416449]: 65
13) 407643 (antisense e[5mC]*eA*e[5mC]*eA*e[5mC]*dA*dT*dG*dG*dA*dG*dT*d[5mC]*dA*dG*e[5mC]*eA*eT*e[5mC]*eG) [compound 407643]: 83

----------
Tested on: human Factor 7 mRNA
run-description: Dose-dependent antisense inhibition of human Factor 7 in HepB3 cells, transfection with lipofectin
Format: cell-based
run-parameters: 12.5 nM, lipofectin, HepB3 cells, 16 hours
In the oligonucleotide strings, read from the 5' end, every base follows the letter of its sugar. An asterisk marks phosphorothioate; unmarked linkages are phosphodiester. Other units and linkages are bracketed, terminal groups are in braces. A string of capitals states the bases alone. e = 2'-O-(2-methoxyethyl) (MOE); [5mC] = 5-methylcytosine; d = 2'-deoxy (DNA)
The substances listed here are annotated with their percent inhibition of Factor 7 mRNA, relative to untreated control cells.
measurement-name: percent inhibition of Factor 7 mRNA, relative to untreated control cells (%)

1) 407935 (antisense eA*eT*eG*e[5mC]*eA*dT*dG*dG*dT*dG*dA*dT*dG*d[5mC]*dT*eT*e[5mC]*eT*eG*eA) [compound 407935]: 58
2) 422292 (antisense eG*eT*dT*d[5mC]*dT*dG*d[5mC]*dA*dG*dG*dA*dG*d[5mC]*dG*dG*e[5mC]*e[5mC]*eT*eA*eA) [compound 422292]: 44
3) 422096 (antisense eA*eG*eA*e[5mC]*eA*dA*dT*dG*dG*dT*d[5mC]*dA*dG*dG*dG*e[5mC]*eT*eG*eG*eT) [compound 422096]: 43
4) 422228 (antisense eT*eG*d[5mC]*dA*dT*dG*dG*dT*dG*dA*dT*dG*d[5mC]*dT*dT*e[5mC]*eT*eG*eA*eA) [compound 422228]: 43
5) 422215 (antisense eG*eT*eT*d[5mC]*dT*dG*d[5mC]*dA*dG*dG*dA*dG*d[5mC]*dG*dG*d[5mC]*d[5mC]*eT*eA*eA) [compound 422215]: 54
6) 422130 (antisense eG*e[5mC]*e[5mC]*eT*eG*dA*dG*dG*d[5mC]*d[5mC]*dA*dG*d[5mC]*dA*dG*eA*eT*e[5mC]*eA*e[5mC]) [compound 422130]: 34
7) 422086 (antisense eT*eG*e[5mC]*eA*eT*dG*dG*dT*dG*dA*dT*dG*d[5mC]*dT*dT*e[5mC]*eT*eG*eA*eA) [compound 422086]: 46
8) 422152 (antisense eA*eT*eG*d[5mC]*dA*dT*dG*dG*dT*dG*dA*dT*dG*d[5mC]*dT*dT*d[5mC]*eT*eG*eA) [compound 422152]: 47
9) 407939 (antisense eT*eG*e[5mC]*eA*eG*d[5mC]*d[5mC]*d[5mC]*dG*dG*d[5mC]*dA*d[5mC]*d[5mC]*d[5mC]*eA*eG*e[5mC]*eG*eA) [compound 407939]: 57
10) 422295 (antisense e[5mC]*eG*dA*dG*dT*dT*d[5mC]*dT*dG*d[5mC]*dA*dG*dG*dA*dG*e[5mC]*eG*eG*e[5mC]*e[5mC]) [compound 422295]: 44
11) 422150 (antisense eG*e[5mC]*eA*dT*dG*dG*dT*dG*dA*dT*dG*d[5mC]*dT*dT*d[5mC]*dT*dG*eA*eA*eT) [compound 422150]: 38

----------
The substances listed here are annotated with their percent inhibition of Factor 7 mRNA, relative to untreated control cells.
Tested on: human Factor 7 mRNA
run-description: Dose-dependent antisense inhibition of human Factor 7 in HepB3 cells, transfection with electroporation
Assay type: cell-based
run-parameters: 50 μM, 16 hours (Example 7, Table 15)
In the oligonucleotide strings, read from the 5' end, every base follows the letter of its sugar. An asterisk marks phosphorothioate; unmarked linkages are phosphodiester. Other units and linkages are bracketed, terminal groups are in braces. A string of capitals states the bases alone. e = 2'-O-(2-methoxyethyl) (MOE); [5mC] = 5-methylcytosine; d = 2'-deoxy (DNA)
measurement-name: percent inhibition of Factor 7 mRNA, relative to untreated control cells (%)

1. 422295 (antisense e[5mC]*eG*dA*dG*dT*dT*d[5mC]*dT*dG*d[5mC]*dA*dG*dG*dA*dG*e[5mC]*eG*eG*e[5mC]*e[5mC]) [compound 422295]: 68
2. 422228 (antisense eT*eG*d[5mC]*dA*dT*dG*dG*dT*dG*dA*dT*dG*d[5mC]*dT*dT*e[5mC]*eT*eG*eA*eA) [compound 422228]: 71
3. 422130 (antisense eG*e[5mC]*e[5mC]*eT*eG*dA*dG*dG*d[5mC]*d[5mC]*dA*dG*d[5mC]*dA*dG*eA*eT*e[5mC]*eA*e[5mC]) [compound 422130]: 73

----------
Tested on: human Factor 7 mRNA
run-description: Dose-dependent antisense inhibition of human Factor 7 in HepB3 cells, transfection with electroporation
Type: cell-based
run-parameters: 50 μM, 16 hours (Example 7, Table 15)
In the oligonucleotide strings, read from the 5' end, every base follows the letter of its sugar. An asterisk marks phosphorothioate; unmarked linkages are phosphodiester. Other units and linkages are bracketed, terminal groups are in braces. A string of capitals states the bases alone. e = 2'-O-(2-methoxyethyl) (MOE); [5mC] = 5-methylcytosine; d = 2'-deoxy (DNA)
The substances listed here are annotated with their percent inhibition of Factor 7 mRNA, relative to untreated control cells.
measurement-name: percent inhibition of Factor 7 mRNA, relative to untreated control cells (%)

1) 422142 (antisense eG*eA*eG*eT*eT*d[5mC]*dT*dG*d[5mC]*dA*dG*dG*dA*dG*d[5mC]*eG*eG*e[5mC]*e[5mC]*eT) [compound 422142]: 77
2) 422087 (antisense e[5mC]*eA*eT*eG*e[5mC]*dA*dT*dG*dG*dT*dG*dA*dT*dG*d[5mC]*eT*eT*e[5mC]*eT*eG) [compound 422087]: 72
3) 422252 (antisense e[5mC]*eG*d[5mC]*d[5mC]*dG*dG*d[5mC]*dT*d[5mC]*dT*dG*d[5mC]*dT*d[5mC]*dA*eT*e[5mC]*e[5mC]*e[5mC]*e[5mC]) [compound 422252]: 58
4) 422086 (antisense eT*eG*e[5mC]*eA*eT*dG*dG*dT*dG*dA*dT*dG*d[5mC]*dT*dT*e[5mC]*eT*eG*eA*eA) [compound 422086]: 75
5) 422183 (antisense eG*e[5mC]*eG*d[5mC]*d[5mC]*dA*d[5mC]*d[5mC]*d[5mC]*dG*d[5mC]*d[5mC]*dG*dG*d[5mC]*dT*d[5mC]*eT*eG*e[5mC]) [compound 422183]: 59
6) 422217 (antisense eG*eA*eG*dT*dT*d[5mC]*dT*dG*d[5mC]*dA*dG*dG*dA*dG*d[5mC]*dG*dG*e[5mC]*e[5mC]*eT) [compound 422217]: 61
7) 422292 (antisense eG*eT*dT*d[5mC]*dT*dG*d[5mC]*dA*dG*dG*dA*dG*d[5mC]*dG*dG*e[5mC]*e[5mC]*eT*eA*eA) [compound 422292]: 75
8) 407935 (antisense eA*eT*eG*e[5mC]*eA*dT*dG*dG*dT*dG*dA*dT*dG*d[5mC]*dT*eT*e[5mC]*eT*eG*eA) [compound 407935]: 80
9) 422177 (antisense e[5mC]*e[5mC]*e[5mC]*dG*d[5mC]*d[5mC]*dG*dG*d[5mC]*dT*d[5mC]*dT*dG*d[5mC]*dT*d[5mC]*dA*eT*e[5mC]*e[5mC]) [compound 422177]: 31
10) 422215 (antisense eG*eT*eT*d[5mC]*dT*dG*d[5mC]*dA*dG*dG*dA*dG*d[5mC]*dG*dG*d[5mC]*d[5mC]*eT*eA*eA) [compound 422215]: 68
11) 422152 (antisense eA*eT*eG*d[5mC]*dA*dT*dG*dG*dT*dG*dA*dT*dG*d[5mC]*dT*dT*d[5mC]*eT*eG*eA) [compound 422152]: 65
12) 422096 (antisense eA*eG*eA*e[5mC]*eA*dA*dT*dG*dG*dT*d[5mC]*dA*dG*dG*dG*e[5mC]*eT*eG*eG*eT) [compound 422096]: 62
